# Tested on: UISO
# Assay explanation: qHTS assay to identify novel small-molecules to repurpose for Merkel cell carcinoma treatment (AID 1296009); also: nearly all actives have a fitted effect of over 60% in size
# Study conditions: MCC and control cell lines, CellTiter-Glo viability, 72 h; series mostly up to 46 µM
Inconclusive results are not listed. The source made the active and inactive calls. Calls follow the shape of the dose curve; as a rule, active = well fitted inhibition curve with a large enough effect; inconclusive = small, poorly fitted or top-dose-only effect; inactive = flat fitted curve, though single readings scatter.
Labels: 1 = active, -1 = inactive

| Compound | Tested system | Category |
| --- | --- | --- |
| Nc1nc(=O)n([C@H]2CSC(CO)O2)cc1F (some centres undefined) | UISO | -1 |
| COc1cccc2c1C(=O)c1c(O)c3c(c(O)c1C2=O)C[C@@](O)(C(=O)CO)C[C@@H]3O[C@H]1C[C@H](N)[C@H](OC2CCCCO2)[C@H](C)O1 (some centres undefined) | UISO | 1 |
| CCc1c(O)cc(O)c(C(=O)c2ccc(OCCN3CCOCC3)c(OC)c2)c1CC(=O)N(CCOC)CCOC | UISO | 1 |
| COc1cc2c(Nc3ccc(Cl)c(Cl)c3F)ncnc2cc1OCC1C[C@@H]2CN(C)C[C@H]2C1 | UISO | 1 |
| C[C@H](NC(=O)[C@@H](O)c1cc(F)cc(F)c1)C(=O)N[C@@H]1C(=O)N(C)c2ccccc2-c2ccccc21 | UISO | -1 |
| CC(Cc1ccc(O)c(O)c1)(NN)C(=O)O (centres undefined) | UISO | -1 |
| O=[N+]([O-])c1cn2c(n1)OC[C@@H](OCc1ccc(OC(F)(F)F)cc1)C2 | UISO | -1 |
| c1ccc2c(Oc3nc(Nc4ccc(N5CCOCC5)cc4)c4ncn(C5CCCCC5)c4n3)cccc2c1 | UISO | -1 |
| C[C@@H](NCc1cc2ccccc2[nH]1)c1cccc2ccccc12 | UISO | -1 |
| COC(=O)C=CC(=O)OC | UISO | -1 |
| Cn1cc(CNCC2CCN(c3ncc(C(=O)NO)cn3)CC2)c2ccccc21 | UISO | 1 |
| CN1[C@H]2CC(OC(=O)[C@@H](CO)c3ccccc3)C[C@H]1[C@H]1O[C@H]12 (some centres undefined) | UISO | -1 |
| CCCCCCCCCCCCc1ccc(S(=O)(=O)Nc2nncs2)cc1 | UISO | -1 |
| Cn1cnc(=N)c2[nH]cnc21 | UISO | 1 |
| C=C1CCC2[C@](C)(CO)C(O)CC[C@]2(C)C1CC=C1C(=O)OCC1O (some centres undefined) | UISO | -1 |
| CN(C)c1ccc2cc(C(=O)N[C@@H](CCCN=C(N)CCl)C(=O)NCc3ccccc3)ccc2c1 | UISO | 1 |
| O=C(Nc1ccc(Oc2ccnc3[nH]ccc23)c(F)c1)c1cccn(-c2ccc(F)cc2)c1=O | UISO | -1 |
| COC1=C(OC)C(=O)C(CC=C(C)CCC=C(C)CCC=C(C)CCC=C(C)CCC=C(C)CCC=C(C)CCC=C(C)CCC=C(C)CCC=C(C)CCC=C(C)C)=C(C)C1=O | UISO | -1 |
| O=C(NNC(=O)c1ccc(CNS(=O)(=O)c2ccc(F)c(Cl)c2)cc1)c1ccccc1 | UISO | -1 |

----------
# Assay explanation: Quantitative High-Throughput drug screen in 47 multiple myeloma cell lines against the NCATS MIPE library collection: PE2_PLB cell viability assay (AID 1919869); also: nearly all actives have a fitted effect of over 35% in size
# Study conditions: PE2_PLB myeloma cells viability, ATP luminescence, 48 h; series mostly up to 45.8 µM
Records with an inconclusive call do not appear. The source made the active and inactive calls. Calls come from the whole dose curve; as a rule, active = well fitted cell-killing curve with a large enough effect; inconclusive = small, poorly fitted or top-dose-only effect, or effect the other way; inactive = no such curve, though single readings can be large or run the other way. Starred links: 1 amine or outer side, 2 acyl side, 3 side chain; linkers in the order of their positions; H or OH if unused. Positions of bridges follow the written chain, without caps; N, C: chain ends. Non-standard residues stand in square brackets, D forms with d. Residues, ends and D or L forms follow the SMILES beside them. Chains are numbered I, II in the order given. Actinocin(9to1) = Cc1c2oc3c(C)ccc(C(=O)[*:1])c3nc-2c(C(=O)[*:2])c(N)c1=O; NMeV = CN[CH](C(=O)O)C(C)C; Sar = CNCC(=O)O
Labels: 1 (active), -1 (inactive)

| Molecule | Category |
| --- | --- |
| NC1=N[C@H]2[C@H](CS[C@H]2CCCCC(=O)O)N1 | -1 |
| COc1cccc2c1C(=O)c1c(O)c3c(c(O)c1C2=O)C[C@@](O)(C(C)=O)C[C@H]3O[C@H]1C[C@H](N)[C@H](O)[C@H](C)O1 | 1 |
| CC(=O)O[C@@]12CO[C@H]1C[C@H](O)[C@@]1(C)C(=O)[C@H](O)C3=C(C)[C@@H](OC(=O)C(O)[C@@H](NC(=O)OC(C)(C)C)c4ccccc4)C[C@@](O)([C@@H](OC(=O)c4ccccc4)[C@@H]21)C3(C)C (stereo not given in full) | -1 |
| CC(C)C[C@H](NC(=O)[C@@H](NC(=O)c1cccc(-c2ccccc2)n1)[C@@H](C)O)B(O)O | 1 |
| Cc1ccc2nc(NCCN)c3ncc(C)n3c2c1 | 1 |
| Cc1c2oc3c(C)ccc(C(=O)NC4C(=O)NC(C(C)C)C(=O)N5CCCC5C(=O)N(C)CC(=O)N(C)C(C(C)C)C(=O)OC4C)c3nc-2c(C(=O)NC2C(=O)NC(C(C)C)C(=O)N3CCCC3C(=O)N(C)CC(=O)N(C)C(C(C)C)C(=O)OC2C)c(N)c1=O (stereo not given) (I: TVP[Sar][NMeV] / II: TVP[Sar][NMeV]; ester I:1-I:C, II:1-II:C; linker I:N-II:N via Actinocin(9to1); configuration not given here) | -1 |
| O=C(O)C(=O)Nc1cccc(C2=NN=N[N]2)c1 | -1 |
| CCCc1nc(C(C)(C)O)c(C(=O)O)n1Cc1ccc(-c2ccccc2-c2nn[nH]n2)cc1 | -1 |
| C=CCNC1=C2C[C@@H](C)C[C@H](OC)[C@@H](O)[C@@H](C)C=C(C)[C@H](OC(N)=O)[C@@H](OC)C=CC=C(C)C(=O)NC(=CC1=O)C2=O | 1 |
| CC(C)N(CC[C@H](c1ccccc1)c1cc(CO)ccc1O)C(C)C | -1 |
| O=c1c(O)c(-c2ccc(O)c(O)c2)oc2cc(O)ccc12 | 1 |
| COc1cc2c(cc1OC)[C@@H]1C(=O)c3ccc4c(c3O[C@@H]1CO2)C=CC(C)(C)O4 | 1 |
| CC(C)(O)CC[C@@H](O)[C@](C)(O)[C@H]1CC[C@@]2(O)C3=CC(=O)[C@@H]4C[C@@H](O)[C@@H](O)C[C@]4(C)[C@@H]3CC[C@]12C | -1 |
| CC(=O)NC(CS)C(=O)O (stereo not given) | -1 |
| CC1(C)CC(O)CC(C)(C)N1[O] | -1 |

Data provenance is PubChem BioAssay (NCATS).
